# method: chemical genetic growth profiling, strain panel (AID 1159580);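 also: tested at 20 µM; growth read once vehicle control cultures reached saturation at 30 °C; 1 = growth at the plate median or of vehicle wells; lower values mean less growth of the strain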
# experimentalConditions: S. cerevisiae deletion strains, growth OD, locus YMR205C, strain PFK2
Screen size: about 5,500 compounds; about 2,000 (36%) were called active. Roughly 18% stayed inconclusive and do not appear here. Rule as the data show it: active = normalized growth mostly below about 0.91 (no sharp cut-off); inconclusive = no clear call, values can overlap the other calls; inactive = mostly above about 0.92. The list shows a part of the results.
Tick one outcome: active, inactive

# example entries with known answers
Query string: Kindly provide the recorded test outcome for the following compound: O=C(O)C1=CCNCC1
Result string: inactive

Query string: Now give it for C[C@H]1[C@H]2CCC3C4CC=C5C[C@@H](N(C)C)CC[C@]5(C)C4CC[C@@]32CN1C (some centres undefined) too.
Result string: inactive

Query string: Param item: CO[C@H]1/C=C/O[C@@]2(C)Oc3c(C)c(O)c4c(O)c(c(/C=N/N5CCN(C)CC5)c(O)c4c3C2=O)NC(=O)/C(C)=C\C=C\C(C)[C@H](O)[C@@H](C)[C@@H](O)[C@@H](C)[C@@H](OC(C)=O)[C@@H]1C (some centres undefined)
Result string: inactive

Query string: Moving on to Nc1ccc(C(=O)NCC(=O)O)cc1
Result string: inactive

Query string: Try this compound next: C=C(C)[C@H]1CC=C(C(=O)O)CC1
Result string: inactive

Further cases:
Query string: For O=[N+]([O-])c1cc([As](=O)(O)O)ccc1O , which call appears in the assay record?
Result string: inactive

Query string: Moving on to O[N+]1=CC=CCC1=S.On1ccccc1=S.[Zn]
Result string: active

Query string: Moving on to the next compound: C=CCC1(C(C)CCC)C(=O)N=C(S)NC1=O (centres undefined)
Result string: inactive

Query string: Note, next up: Cc1ccsc1/C=C/C1=NCCCN1C
Result string: inactive

Query string: Moving on to the next compound: C=CC(C)(O)CC/C=C(\C)CCC=C(C)C (centres undefined)
Result string: inactive

Query string: CN[C@H](CC(=O)O)C(=O)O ?
Result string: inactive

Query string: Moving on to the next compound: COc1c2c(cc3c1OCO3)CCN(C)C2
Result string: inactive

Query string: Can you handle CN/C(=C\[N+](=O)[O-])NCCSCc1ccc(CN(C)C)o1 next?
Result string: inactive

Query string: Also COc1cc(OC)c2c(=O)c(-c3ccccc3)c(C)oc2c1OC ?
Result string: inactive

Query string: Another compound to check: O=C1C=CC2=C3c4cc(O)c(O)cc4CC3(O)COC2=C1O (centres undefined)
Result string: inactive

Query string: What about this compound? CC(C)=CCC[C@](C)(O)C1CC=C(C)CC1 (some centres undefined)
Result string: inactive

* * *

# method: chemical genetic growth profiling, strain panel (AID 1159580)
# experimentalConditions: S. cerevisiae deletion strains, growth OD, locus YDR297W, strain sur2
About 2,000 (36%) of roughly 5,500 compounds were called active. Not shown: some 18% with an inconclusive outcome. Cut-off read from the data, not from the text of the source: active = normalized growth mostly below about 0.91 (no sharp cut-off); inconclusive = no clear call, values can overlap the other calls; inactive = mostly above about 0.92. The list shows a part of the results.
Could you please pick one outcome from this set? active, inactive

Query string: Kindly provide the recorded test outcome for the following molecule: COc1ccccc1OCCNCC(O)COc1cccc2[nH]c3ccccc3c12 (configuration not stated)
Result string: inactive

Query string: Now this one: C=CC(C1=CC(=O)C(OC)=CC1=O)c1ccc(OC)cc1 (configuration not stated)
Result string: inactive

Query string: Then what about the molecule CC1(C)C(C(Cl)Cl)C2(Cl)C(Cl)C(Cl)C1(Cl)C2(Cl)Cl (configuration not stated) ?
Result string: inactive

Query string: What do you get for CC(C)=CCC[C@](C)(O)C1CC=C(C)CC1 (some centres not stated) ?
Result string: inactive

Query string: Similarly, CC(=O)O[C@@H]1C[C@@]2(C)[C@H](c3ccoc3)C[C@H]3O[C@]32[C@]2(C)C(=O)C(O)=C3C(C)(C)C(=O)C=C[C@]3(C)C12 (some centres not stated) ?
Result string: inactive

Query string: Query CC(=O)Nc1cc([As](=O)(O)O)ccc1O next
Result string: inactive

Query string: Entry to check: CC(C)=CCC/C(C)=C/CC/C(C)=C/CC/C(C)=C/CC/C(C)=C/CC/C(C)=C/CC/C(C)=C/CC/C(C)=C/CC/C(C)=C/CO
Result string: inactive

Query string: Lookup N[C@@H](Cc1ccc(O)c(O)c1)C(=O)O
Result string: inactive

Query string: Same question, O=C(OC1Cc2c(O)cc(O)cc2OC1c1cc(O)c(O)c(O)c1-c1c(C2Oc3cc(O)cc(O)c3CC2OC(=O)c2cc(O)c(O)c(O)c2)cc(O)c(O)c1O)c1cc(O)c(O)c(O)c1 (configuration not stated) this time
Result string: inactive

Query string: Field entry: CN/C(=C\[N+](=O)[O-])NCCSCc1ccc(CN(C)C)o1
Result string: inactive

---
Query string: Can you look up the reported call for Cc1ccsc1/C=C/C1=NCCCN1C for me?
Result string: inactive

Query string: Continue with O=C(O[C@@H]1Cc2c(O)cc(O)cc2O[C@@H]1c1cc(O)c(O)c(O)c1-c1c([C@H]2Oc3cc(O)cc(O)c3C[C@H]2O)cc(O)c(O)c1O)c1cc(O)c(O)c(O)c1
Result string: inactive

Query string: O=C(O)c1ccccc1Nc1ccccc1 ?
Result string: inactive

* * *

# method: chemical genetic growth profiling, strain panel (AID 1159580)
# experimentalConditions: S. cerevisiae deletion strains, growth OD, locus YNL224C, strain SQS1, active compounds read low
The whole screen tested about 5,500 compounds, of which about 2,000 (36%) were called active. Another 18% or so got no clear call; they are omitted. The list shows a part of the results.
Answer each item with its documented normalized growth.
Give bare numbers.

// below: answered compounds
Query string: Need normalized growth of CCCCCCCCCCCCCCCC(=O)NCCO , thanks.
Result string: 0.823

Query string: Similarly, CO[C@@]1(NC(=O)CSCC#N)C(=O)N2C(C(=O)O)=C(CSc3nnnn3C)CS[C@@H]21 ?
Result string: 1

Query string: Now consider CN(C(=O)CCCOc1ccc2[nH]c(=O)ccc2c1)C1CCCCC1 and answer again.
Result string: 0.989

Query string: Next compound up: Cc1cccc(C)c1NC(=O)C[N+](C)(C)C
Result string: 1.01

For the 2 compounds below, give their normalized growth values.
1. CC[N+](CC)(CC)CC(=O)Nc1c(C)cccc1C
2. CCCCCCCC/C=C\CCCCCCCC(=O)NCCO

Result string:
1: 0.999; 2: 1

Below is a list of compounds. For each, state its recorded normalized growth.
1. O=C(O)c1ccccc1Nc1cccc(OCc2ccc3ccccc3n2)c1
2. CCn1ccnc1CC1COc2ccccc2O1 (stereo unspecified)
3. C[C@@]1(C2CCCC2)Cc2cc(OCC(=O)O)c(Cl)c(Cl)c2C1=O

Result string:
0.95
1.01
1

* * *

# method: chemical genetic growth profiling, strain panel (AID 1159580);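 also: tested at 20 µM; growth read once vehicle control cultures reached saturation at 30 °C; 1 = growth at the plate median or of vehicle wells; lower values mean less growth of the strain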
# experimentalConditions: S. cerevisiae deletion strains, growth OD, locus YDR101C, strain arx1
About 2,000 (36%) of roughly 5,500 compounds were called active. Not shown: some 18% with an inconclusive outcome. No stated cut-off is given here; in the data, active means normalized growth mostly below about 0.91 (no sharp cut-off); inconclusive means no clear call, values can overlap the other calls; inactive means mostly above about 0.92. The list shows a part of the results.
Pick one and only one: active, inactive

Worked examples follow.
Query string: What call does the record list for CC(=O)O[C@@H]1C[C@@]2(C)[C@H](c3ccoc3)C[C@H]3O[C@]32[C@]2(C)C(=O)C(O)=C3C(C)(C)C(=O)C=C[C@]3(C)C12 (stereo not given in full) ?
Result string: active

Query string: Now try C1CNCCN1 .
Result string: inactive

Query string: Now consider CC1(C)CC2C1(O)CCC1(C)C=CC(O)C21CO (stereo not given) and answer again.
Result string: inactive

***
Query string: What outcome does the record of this test show for CCCC(C)C1(CC)C(=O)N=C(S)NC1=O (stereo not given) ?
Result string: active

Query string: Then this compound: NCC(CC(=O)O)c1ccc(Cl)s1 (stereo not given)
Result string: inactive

Query string: Please answer likewise for C=CCC1(C(C)CCC)C(=O)N=C(S)NC1=O (stereo not given)
Result string: inactive

Query string: Consider next the compound CC(=O)Oc1ccc(Cl)c2cccnc12 in the same way.
Result string: active

* * *

# method: chemical genetic growth profiling, strain panel (AID 1159580);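 also: tested at 20 µM; growth read once vehicle control cultures reached saturation at 30 °C; 1 = growth at the plate median or of vehicle wells; lower values mean less growth of the strain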
# experimentalConditions: S. cerevisiae deletion strains, growth OD, locus YHR094C, strain hxt1, active compounds read low
Among all 5,500 compounds or so, about 2,000 (36%) were called active. Roughly 18% stayed inconclusive and do not appear here. The list shows a part of the results.
# label = satisfied if normalized growth < 1 else not satisfied

Query string: Bench note: check whether Cc1ccsc1/C=C/C1=NCCCN1C shows normalized growth below 1
Result string: satisfied

Query string: Lookup Nc1nc2ncc(C(=O)O)nc2c(=O)[nH]1
Result string: not satisfied

# input for lookup
Query string: Strictly below 1: is that where normalized growth of NC[C@H](O)c1ccc(O)c(O)c1 sits?
Result string: not satisfied

* * *

# method: chemical genetic growth profiling, strain panel (AID 1159580);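 also: tested at 20 µM; growth read once vehicle control cultures reached saturation at 30 °C; 1 = growth at the plate median or of vehicle wells; lower values mean less growth of the strain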
# experimentalConditions: S. cerevisiae deletion strains, growth OD, locus YIR030C, strain dcg1, active compounds read low
Among all 5,500 compounds or so, about 2,000 (36%) were called active. Inconclusive results (about 18%) are left out. The list shows a part of the results.
quantityName: normalized growth
Numbers only.

As a guide, the following entries are already answered.
Query string: # input molecule: C1CCN2CC3CC(CN4CCCCC34)C2C1 (stereo unspecified) ; wanted: its normalized growth
Result string: 1.01

Query string: Please answer likewise for CCCc1occc(=O)c1/C=C/O
Result string: 0.955

Query string: Try this molecule next: CCC[C@H]1CC2=C(C[C@@H](CC)CC3=C1C(=O)OC3=O)C(=O)OC2=O
Result string: 1.01

Query string: Thanks! And Cc1occc(=O)c1/C=C/O ?
Result string: 1.01

Query string: Please give the result for COc1ccccc1OCCNCC(O)COc1cccc2[nH]c3ccccc3c12 (stereo unspecified) too.
Result string: 1.02

Give me normalized growth for each of these molecules, listed below.
1. Nc1ncn([C@@H]2O[C@H](CO)[C@@H](O)[C@H]2O)c(=O)n1
2. CC(=O)O[C@@H]1CC2C(C)(C)C(=O)CC[C@]2(C)C2CC[C@]3(C)C(=CC(=O)O[C@H]3c3ccoc3)[C@@]21C (stereo partly specified)
3. COc1cc(OC)c2c(=O)c(-c3ccccc3)c(C)oc2c1OC
4. NCC(CC(=O)O)c1ccc(Cl)s1 (stereo unspecified)
5. C=C(C)[C@H]1CC=C(C(=O)O)CC1

Result string:
1: 1; 2: 0.987; 3: 1; 4: 0.993; 5: 0.961

Query string: // lookup normalized growth for Nc1ccc(S(=O)(=O)Nc2ccccn2)cc1
Result string: 0.996
